Tested on: E. coli ATCC28922
measurement.notes: MIC determination by microplate dilution, E. coli human strain
Format: cell-based, Escherichia coli
measurement.context: Escherichia coli, ATCC28922, Gram-negative, Mueller-Hinton medium, 24 h, 37° C.
Listed compounds paired with reported MIC
The figure you give is taken to be in µg/mL; do not add the unit.

COC(=O)CC[C@@H](C)[C@H]1CCC2C3CCC4C[C@@H](NCCCN(CCCN)CCCN)CC[C@]4(C)C3C[C@H](O)[C@@]21C (stereo partly drawn): 7
CC(C)OC(=O)CC[C@@H](C)[C@H]1CCC2C3C(CC[C@@]21C)[C@@]1(C)CC[C@H](NCCCNCCCNCCCN)CC1C[C@H]3O (stereo partly drawn): 16
COC(=O)CC[C@@H](C)[C@H]1CCC2C3C(CC[C@@]21C)[C@@]1(C)CC[C@H](NCCCN(CCCN)CCCN)CC1C[C@@H]3O (stereo partly drawn): 30
COC(=O)CC[C@@H](C)[C@H]1CCC2C3CCC4C[C@@H](NCCCNCCCN)CC[C@]4(C)C3CC[C@@]21C (stereo partly drawn) [(18), methyl 3β-norspermidinolithocholate]: 32
COC(=O)CC[C@@H](C)[C@H]1CCC2C3C(CC[C@@]21C)[C@@]1(C)CC[C@H](NCCCNCCCN)CC1C[C@@H]3O (stereo partly drawn) [(13), methyl 3β-norspermidinoursodeoxycholate]: 55
COC(=O)CC[C@@H](C)[C@H]1CCC2C3C(CC[C@@]21C)[C@@]1(C)CC[C@H](NCCCN(C)CCCN)CC1C[C@H]3O (stereo partly drawn): 27
CC(C)OC(=O)CC[C@@H](C)[C@H]1CCC2C3CCC4C[C@@H](NCCCN(C)CCCN)CC[C@]4(C)C3C[C@H](O)[C@@]21C (stereo partly drawn): 28
CC(C)OC(=O)CC[C@@H](C)[C@H]1CCC2C3C(C[C@H](O)[C@@]21C)[C@@]1(C)CC[C@H](NCCNCCNCCNCCNCCN)CC1C[C@H]3O (stereo partly drawn): 33
CC(C)OC(=O)CC[C@@H](C)[C@H]1CCC2C3C(C[C@H](O)[C@@]21C)[C@@]1(C)CC[C@H](NCCN(CCN)CCN)CC1C[C@H]3O (stereo partly drawn): 28
CC(C)OC(=O)CC[C@@H](C)[C@H]1CCC2C3C(C[C@H](O)[C@@]21C)[C@@]1(C)CC[C@H](NCCCN(C)CCCN)CC1C[C@H]3O (stereo partly drawn): 58

# get_value(readout='MIC', item= COC(=O)CC[C@@H](C)[C@H]1CCC2C3C(CC[C@@]21C)[C@@]1(C)CC[C@H](NCCNCCNCCNCCNCCN)CC1C[C@H]3O (stereo partly drawn) ) 31

# get_value(readout='MIC', item= COC(=O)CC[C@@H](C)[C@H]1CCC2C3C(CC[C@@]21C)[C@@]1(C)CC[C@H](NCCCN(CCCN)CCCN)CC1C[C@H]3O (stereo partly drawn) ) 28

---

Tested on: E. coli (1956)
measurement.notes: MIC determination by microplate dilution, E. coli animal strain
Type: cell-based, Escherichia coli
measurement.context: Escherichia coli, Gram-negative, Mueller-Hinton medium, 24 h, 37° C.
recorded.endpoint: MIC (µg/mL)
The figure you give is taken to be in µg/mL; do not add the unit.

Query MIC on E. coli (1956) for COC(=O)CC[C@@H](C)[C@H]1CCC2C3C(C[C@H](O)[C@@]21C)[C@@]1(C)CC[C@H](NCCCNCCCN)C[C@H]1C[C@H]3O (stereo partly drawn) [Compound (5), methyl 3β-norspermidinocholate] 27

Query MIC on E. coli (1956) for CC(C)OC(=O)CC[C@@H](C)[C@H]1CCC2C3C(C[C@H](O)[C@@]21C)[C@@]1(C)CC[C@H](NCCNCCNCCNCCNCCN)CC1C[C@H]3O (stereo partly drawn) [(21)] 66

Query MIC on E. coli (1956) for CC(C)OC(=O)CC[C@@H](C)[C@H]1CCC2C3CCC4C[C@@H](NCCCN(C)CCCN)CC[C@]4(C)C3C[C@H](O)[C@@]21C (stereo partly drawn) [(30)] 56

Ref: patent US20190255073A1
